Each item that follows carries a reported viability, T/C.
- System: 598228-144-R-J1-PDC complex spheroid viability;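 further: spheroids exposed to the agents for one week before reading; percent of vehicle DMSO control viability so 100% = untreated growth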
- experimental protocol: Anticancer human tumor 598228-144-R-J1-PDC patient-derived serous endometrial adenocarcinoma cell line growth inhibition [GQUAD]
- condition summary: second compound 1 µM; first compound 0.1 µM; active compounds read low
measured endpoint: viability, T/C (%)

CC1COCCN1c1cc(C2(S(C)(=N)=O)CC2)nc(-c2ccnc3[nH]ccc23)n1 (stereo not given) + Cc1cnc(CNC(=O)c2c(=O)c3ccc(N4CCCN(C)CC4)nc3n3c2sc2ccccc23)cn1 | 57.2
CC(C)n1c(=O)n(C)c2cnc3cc(F)c(-c4ccc(OCCCN5CCCCC5)nc4)cc3c21 + Cc1cnc(CNC(=O)c2c(=O)c3ccc(N4CCCN(C)CC4)nc3n3c2sc2ccccc23)cn1 | 59.2
COc1ncnc(C2CC2)c1-c1ncc2cnn(Cc3ccc(-c4nc(C(F)(F)F)cn4C(C)C)cc3)c2n1 + CN(C)c1ccc(Nc2c3ccc(NC(=O)CCN4CCCC4)cc3nc3cc(NC(=O)CCN4CCCC4)ccc23)cc1 | 90.6
Nc1ccn(C2OC(CO)C(O)C2(F)F)c(=O)n1 (stereo not given) + CN(C)c1ccc(Nc2c3ccc(NC(=O)CCN4CCCC4)cc3nc3cc(NC(=O)CCN4CCCC4)ccc23)cc1 | 51.3
C=CC(=O)N1CCN(c2nc(=O)n(-c3c(C)ccnc3C(C)C)c3nc(-c4c(O)cccc4F)c(F)cc23)C(C)C1 (stereo not given) + CN(C)c1ccc(Nc2c3ccc(NC(=O)CCN4CCCC4)cc3nc3cc(NC(=O)CCN4CCCC4)ccc23)cc1 | 105
CCCS(=O)(=O)Nc1ccc(F)c(C(=O)c2c[nH]c3ncc(-c4ccc(Cl)cc4)cc23)c1F + Cc1cnc(CNC(=O)c2c(=O)c3ccc(N4CCCN(C)CC4)nc3n3c2sc2ccccc23)cn1 | 70.7
C#Cc1c(F)ccc2cc(O)cc(-c3ncc4c(N5CC6CCC(C5)N6)nc(OCC56CCCN5CC(F)C6)nc4c3F)c12 (stereo not given) + Cc1cnc(CNC(=O)c2c(=O)c3ccc(N4CCCN(C)CC4)nc3n3c2sc2ccccc23)cn1 | 53.4
COc1cccc2c1C(=O)c1c(O)c3c(c(O)c1C2=O)CC(O)(C(=O)CO)CC3OC1CC(N)C(O)C(C)O1 (stereo not given) + Cc1cnc(CNC(=O)c2c(=O)c3ccc(N4CCCN(C)CC4)nc3n3c2sc2ccccc23)cn1 | 67.6
C#Cc1c(F)ccc2cc(O)cc(-c3ncc4c(N5CC6CCC(C5)N6)nc(OCC56CCCN5CC(F)C6)nc4c3F)c12 (stereo not given) + CN(C)c1ccc(Nc2c3ccc(NC(=O)CCN4CCCC4)cc3nc3cc(NC(=O)CCN4CCCC4)ccc23)cc1 | 102
CC1COCCN1c1cc(C2(O)CC3CCC(C2)O3)c2cnn(-c3ccn[nH]3)c2n1 (stereo not given) + Cc1[nH]c2ccc(F)cc2c1-c1nc2c3cccnc3c3ncccc3c2[nH]1 | 37.1
CC1COCCN1c1cc(-c2ccnn2C)c2ccnc(-c3ccn[nH]3)c2n1 (stereo not given) + Cc1cnc(CNC(=O)c2c(=O)c3ccc(N4CCCN(C)CC4)nc3n3c2sc2ccccc23)cn1 | 42
Nc1ccn(C2OC(CO)C(O)C2(F)F)c(=O)n1 (stereo not given) + Cc1cnc(CNC(=O)c2c(=O)c3ccc(N4CCCN(C)CC4)nc3n3c2sc2ccccc23)cn1 | 41.6
CC(C)(O)C1CCC(Nc2ccc3ncc(-c4cccc(C(F)(F)F)c4)n3n2)CC1 (stereo not given) + Cc1cnc(CNC(=O)c2c(=O)c3ccc(N4CCCN(C)CC4)nc3n3c2sc2ccccc23)cn1 | 45.9
CC(C)(O)C1CCC(Nc2ccc3ncc(-c4cccc(C(F)(F)F)c4)n3n2)CC1 (stereo not given) + Cc1[nH]c2ccc(F)cc2c1-c1nc2c3cccnc3c3ncccc3c2[nH]1 | 67
O=C(NO)c1cnc(N2CCN(S(=O)(=O)c3ccc4ccccc4c3)CC2)nc1 + Cc1cnc(CNC(=O)c2c(=O)c3ccc(N4CCCN(C)CC4)nc3n3c2sc2ccccc23)cn1 | 30.6
COc1ncnc(C2CC2)c1-c1ncc2cnn(Cc3ccc(-c4nc(C(F)(F)F)cn4C(C)C)cc3)c2n1 + Cc1[nH]c2ccc(F)cc2c1-c1nc2c3cccnc3c3ncccc3c2[nH]1 | 76.1
O=C(c1cc(Cc2n[nH]c(=O)c3ccccc23)ccc1F)N1CCN(C(=O)C2CC2)CC1 + Cc1cnc(CNC(=O)c2c(=O)c3ccc(N4CCCN(C)CC4)nc3n3c2sc2ccccc23)cn1 | 51.3
O=c1[nH]cc(F)c(=O)[nH]1 + Cc1cnc(CNC(=O)c2c(=O)c3ccc(N4CCCN(C)CC4)nc3n3c2sc2ccccc23)cn1 | 54.3
CC(=O)O[C@H]1C(=O)[C@@]2(C)[C@H]([C@H](OC(=O)c3ccccc3)[C@]3(O)C[C@H](OC(=O)[C@H](O)[C@@H](NC(=O)c4ccccc4)c4ccccc4)C(C)=C1C3(C)C)[C@]1(OC(C)=O)CO[C@@H]1C[C@@H]2O + CN(C)c1ccc(Nc2c3ccc(NC(=O)CCN4CCCC4)cc3nc3cc(NC(=O)CCN4CCCC4)ccc23)cc1 | 38.7
COc1ccc([C@@H](O)c2cc(-c3ncnc4cc(N5CCOCC5)ccc34)c(F)cc2Cl)nn1 + CN(C)c1ccc(Nc2c3ccc(NC(=O)CCN4CCCC4)cc3nc3cc(NC(=O)CCN4CCCC4)ccc23)cc1 | 91.6
